Each entry below carries its recorded pKi.
- target: Human recombinant MMP-14 (Homo sapiens)
- Construct: The catalytic domain enzyme was expressed in E. coli inclusion bodies, solubilized in urea; made in house
- assay_summary: In vitro MMP inhibition analysis (fluorogenic peptide substrate cleavage), Ki
- Type: biochemical
- condition_description: Table 2
pKi: −log10 of the molar value.
value_type: pKi

# structure_string, value_prefix, quantitative_result
records = [
    ("CC(=O)Nc1cnc(-c2ccc(S(=O)(=O)C3(C(=O)NO)CCOCC3)cc2)cn1", "=", 5.46),
    ("CC(C)CCOc1ccc(-c2ccc(S(=O)(=O)C3(C(=O)NO)CCOCC3)cc2)cc1", "=", 6.13),
    ("O=C(Cc1ccc(-c2ccc(S(=O)(=O)C3(C(=O)NO)CCOCC3)cc2)nc1)N1CCCCC1", "<", 5.00),
    ("CCCCc1ccc(-c2ccc(S(=O)(=O)C3(C(=O)NO)CCN(CC)CC3)cc2)nc1", "=", 6.22),
    ("O=C(NO)C1(S(=O)(=O)c2ccc(-c3ccc(OCC(F)(F)C(F)F)c(C(F)(F)F)c3)cc2)CCOCC1", "=", 5.55),
    ("Cc1nc(CCc2ccc(-c3ccc(S(=O)(=O)C4(C(=O)NO)CCOCC4)cc3)cc2)no1", "=", 5.75),
    ("CC(C)CCc1cnc(-c2ccc(S(=O)(=O)C3(C(=O)NO)CCOCC3)cc2)cn1", "=", 5.60),
    ("CC[C@H](C)NC(=O)c1ccc(-c2ccc(S(=O)(=O)C3(C(=O)NO)CCOCC3)cc2)nc1", "<", 5.00),
]

====

- target: Human recombinant MMP-14 (Homo sapiens)
- Construct: The catalytic domain enzyme was expressed in E. coli inclusion bodies, solubilized in urea; made in house
- assay_summary: In vitro MMP inhibition analysis (fluorogenic peptide substrate cleavage), Ki
- Format: biochemical
- condition_description: Table 2
pKi: −log10 of the molar value.
Each entry below carries its recorded pKi.

# structure_string, value_prefix, pKi
data = [
    ("CCN1CCC(C(=O)NO)(S(=O)(=O)c2ccc(-c3ccc(OCCCCO)cc3)cc2)CC1", "=", 6.13),
    ("CCCCc1ccc(-c2ccc(S(=O)(=O)C3(C(=O)NO)CCN(CC)CC3)cc2)cn1", "<", 5.00),
    ("O=C(NO)C1(S(=O)(=O)c2ccc(-c3cnc(OCCCC(F)(F)F)cn3)cc2)CCOCC1", "=", 6.27),
    ("CCCCc1ccc(-c2ccc(S(=O)(=O)C3(C(=O)NO)CCOCC3)cc2)nc1", "=", 6.86),
]

====

- target: Human recombinant MMP-13 (Homo sapiens)
- Construct: made in house; host or cells: baculovirus / insect cells
- assay_summary: In vitro MMP inhibition analysis (fluorogenic peptide substrate cleavage), Ki
- Type: biochemical
- condition_description: Table 2
Each entry below carries its recorded Ki.
value_type: Ki (nM)

# structure_string, value_type, quantitative_result
data = [
    ("C#CCN1CCC(C(=O)NO)(S(=O)(=O)c2ccc(-c3ccc(CCC(F)(F)C(F)(F)F)cn3)cc2)CC1", "Ki", 0.086),
    ("CCCCc1cnc(-c2ccc(S(=O)(=O)C3(C(=O)NO)CCN(CCOC)CC3)cc2)cn1", "Ki", 0.41),
    ("O=C(NO)C1(S(=O)(=O)c2ccc(-c3cnc(-n4cccc4)cn3)cc2)CCOCC1", "Ki", 0.428),
    ("CC(C)CCOc1ccc(-c2ccc(S(=O)(=O)C3(C(=O)NO)CCOCC3)cc2)cc1", "Ki", 0.199),
    ("O=C(NO)C1(S(=O)(=O)c2ccc(-c3cscc3-c3ccc(F)cc3)cc2)CCOCC1", "Ki", 71),
    ("CCN1CCC(C(=O)NO)(S(=O)(=O)c2ccc(-c3ccc(-c4ccncc4)cc3)cc2)CC1", "Ki", 0.021),
    ("COC(=O)c1ccc2cc(-c3ccc(S(=O)(=O)C4(C(=O)NO)CCOCC4)cc3)ccc2c1", "Ki", 0.09),
    ("CCN1CCC(C(=O)NO)(S(=O)(=O)c2ccc(-c3ccc(OCCOC)c(F)c3)cc2)CC1", "Ki", 0.144),
]

====

- target: Human recombinant MMP-14 (Homo sapiens, UniProt P50281)
- Construct: The catalytic domain enzyme was expressed in E. coli inclusion bodies, solubilized in urea; made in house
- assay_summary: In vitro MMP inhibition analysis (fluorogenic peptide substrate cleavage), Ki
- Type: biochemical
- condition_description: Table 2

# structure_string, target, value_prefix, Ki (nM)
rows = [
    ("O=C(NO)C1(S(=O)(=O)c2ccc(-c3ccc(OCC(F)(F)C(F)(F)F)c(C(F)(F)F)c3)cc2)CCOCC1", "Human recombinant MMP-14 (Homo sapiens, UniProt P50281)", "=", 2100),
    ("O=C(NO)C1(S(=O)(=O)c2ccc(-c3ccc(OCCCC(F)(F)F)cn3)cc2)CCOCC1", "Human recombinant MMP-14 (Homo sapiens, UniProt P50281)", "=", 187),
    ("O=C(NO)C1(S(=O)(=O)c2ccc(-c3cscc3-c3ccc(F)cc3)cc2)CCOCC1", "Human recombinant MMP-14 (Homo sapiens, UniProt P50281)", "=", 3170),
    ("O=C(NO)C1(S(=O)(=O)c2ccc(-c3ccc(-c4ccccc4F)cn3)cc2)CCN(C2CC2)CC1", "Human recombinant MMP-14 (Homo sapiens, UniProt P50281)", "=", 307),
    ("CC(C)CCOc1ccc(-c2ccc(S(=O)(=O)C3(C(=O)NO)CCOCC3)cc2)cc1C(F)(F)F", "Human recombinant MMP-14 (Homo sapiens, UniProt P50281)", ">", 10000),
    ("CCCCOc1ccc(-c2ccc(S(=O)(=O)C3(C(=O)NO)CCN(CCOC)CC3)cc2)cc1", "Human recombinant MMP-14 (Homo sapiens, UniProt P50281)", "=", 171),
    ("COCCN1CCC(C(=O)NO)(S(=O)(=O)c2ccc(-c3ccc(-c4ccccc4)cc3)cc2)CC1", "Human recombinant MMP-14 (Homo sapiens, UniProt P50281)", "=", 144),
    ("O=C(NO)C1(S(=O)(=O)c2ccc(-c3ccc(F)c(C(F)(F)F)c3)cc2)CCOCC1", "Human recombinant MMP-14 (Homo sapiens, UniProt P50281)", "=", 989),
]

====

- target: Human recombinant MMP-14 (Homo sapiens)
- Construct: The catalytic domain enzyme was expressed in E. coli inclusion bodies, solubilized in urea; made in house
- assay_summary: In vitro MMP inhibition analysis (fluorogenic peptide substrate cleavage), Ki
- Assay type: biochemical
- condition_description: Table 2
pKi: −log10 of the molar value.
Classify as follows. Reported pKi greater than or equal to 6: yes. Reported pKi below: no.

# structure_string, target, label
data = [
    ("COCCOc1ccc(-c2ccc(S(=O)(=O)C3(C(=O)NO)CCOCC3)cc2)cc1", "Human recombinant MMP-14 (Homo sapiens)", "yes"),
    ("CN(C)C(=O)c1ccc2cc(-c3ccc(S(=O)(=O)C4(C(=O)NO)CCOCC4)cc3)ccc2c1", "Human recombinant MMP-14 (Homo sapiens)", "no"),
    ("O=C(NO)C1(S(=O)(=O)c2ccc(-c3ccc(-c4ccccc4)cc3)cc2)CCN(C2CC2)CC1", "Human recombinant MMP-14 (Homo sapiens)", "yes"),
    ("O=C(NO)C1(S(=O)(=O)c2ccc(-c3cnc(CCC(F)(F)F)cn3)cc2)CCN(C2CC2)CC1", "Human recombinant MMP-14 (Homo sapiens)", "no"),
    ("CCOc1ccc(-c2ccc(S(=O)(=O)C3(C(=O)NO)CCOCC3)cc2)cc1", "Human recombinant MMP-14 (Homo sapiens)", "yes"),
    ("Cc1ccc(-c2ccc(S(=O)(=O)C3(C(=O)NO)CCOCC3)cc2)nc1", "Human recombinant MMP-14 (Homo sapiens)", "yes"),
    ("O=C(NCC1CC1)c1ccc2cc(-c3ccc(S(=O)(=O)C4(C(=O)NO)CCOCC4)cc3)ccc2c1", "Human recombinant MMP-14 (Homo sapiens)", "no"),
    ("O=C(NO)C1(S(=O)(=O)c2ccc(-c3ccc(OCC(F)(F)C(F)(F)F)cc3)cc2)CCOCC1", "Human recombinant MMP-14 (Homo sapiens)", "yes"),
    ("CC(C)NC(=O)c1ccc(-c2ccc(S(=O)(=O)C3(C(=O)NO)CCOCC3)cc2)nc1", "Human recombinant MMP-14 (Homo sapiens)", "no"),
    ("C#CCN(C)C(=O)c1ccc2cc(-c3ccc(S(=O)(=O)C4(C(=O)NO)CCOCC4)cc3)ccc2c1", "Human recombinant MMP-14 (Homo sapiens)", "no"),
    ("O=C(NO)C1(S(=O)(=O)c2ccc(-c3ccc(OC(F)(F)F)cc3)cc2)CCOCC1", "Human recombinant MMP-14 (Homo sapiens)", "yes"),
    ("O=C(NO)C1(S(=O)(=O)c2ccc(-c3noc(-c4ccc(F)cc4)n3)cc2)CCOCC1", "Human recombinant MMP-14 (Homo sapiens)", "yes"),
    ("O=C(NO)C1(S(=O)(=O)c2ccc(-c3cnc(OCCC4CC4)cn3)cc2)CCOCC1", "Human recombinant MMP-14 (Homo sapiens)", "yes"),
]
